# MEASUREMENT TARGET: STK11 (human) (UniProt Q15831)
# Sequence (Q15831 whole entry, looked up): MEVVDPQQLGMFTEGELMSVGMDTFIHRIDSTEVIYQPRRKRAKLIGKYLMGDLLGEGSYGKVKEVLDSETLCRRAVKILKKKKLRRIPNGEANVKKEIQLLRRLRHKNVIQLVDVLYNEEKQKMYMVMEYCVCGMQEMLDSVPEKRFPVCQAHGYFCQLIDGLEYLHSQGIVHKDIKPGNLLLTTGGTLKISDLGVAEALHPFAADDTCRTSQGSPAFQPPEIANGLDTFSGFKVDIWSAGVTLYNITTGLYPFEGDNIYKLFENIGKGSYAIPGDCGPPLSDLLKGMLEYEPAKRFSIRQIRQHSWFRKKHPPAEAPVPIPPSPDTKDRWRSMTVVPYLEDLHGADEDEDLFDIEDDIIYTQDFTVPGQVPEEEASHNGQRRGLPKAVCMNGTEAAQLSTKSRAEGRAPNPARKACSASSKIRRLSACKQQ
# ASSAY NOTES: radiometric filter-binding kinase assay, Kinase HotSpot
# COND: compound 0.5 µM; ATP 10 µM
List of residual activity values.
MEASURED ENDPOINT: residual activity (%)

* CNc1cc2c(Nc3cccc(Br)c3)ncnc2cn1 | 98.3
* COc1cc2ncnc(Nc3cccc(Cl)c3)c2cc1OC | 96.8
* N#CC(C#N)=C(N)/C(C#N)=C/c1ccc(O)cc1 | 96.5
* CC#CC(=O)Nc1cc2c(Nc3ccc(F)c(Cl)c3)ncnc2cn1 | 99.6
* CCOC(=O)c1c(C)[nH]c(/C=C2\C(=O)Nc3ccccc32)c1C | 85.2
* O=C1NC(=O)/C(=C/c2ccc3c(c2)OC(F)(F)O3)S1 | 96.9
* c1ccc(-c2n[nH]cc2-c2ccnc3ccccc23)nc1 | 82.6
* Cc1ccc(NC2=CC(=O)c3sc(C)nc3C2=O)cc1 | 85.6
* CCC(=O)Nc1ccc2ncnc(Nc3cccc(Br)c3)c2c1 | 103
* O=C1NC(=O)c2c1c1c3ccccc3n3c1c1c2c2ccccc2n1C1CCC3O1 | 50.5
* Nc1cccc(-c2cc3c(Oc4cccc(O)c4)ncnc3[nH]2)c1 | 12.4
